target: anti-A026 antibody (IL-1beta PET)
test_method_notes: peptide competition assay in 6% BSA
Where no end group is shown, it is not given here.
measured_endpoint: IC50 (nM)
API: value field is a number in nM; no unit string.

For record Ac-PTLQLESVDPKC [A026 peptide (IL-1beta), Ac-…] the listed IC50 is 8
